B1: F1*; the commonest letter at each place (parent)
chain: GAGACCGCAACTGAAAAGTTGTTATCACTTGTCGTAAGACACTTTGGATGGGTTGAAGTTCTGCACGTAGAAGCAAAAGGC

Variants of: B1
Protocol Text: fraction ligated after 30 min (ligated reads / total reads); higher = more ligase activity
Measurement Setup: with F1*sub RNA substrate (template-directed ligation), 42 °C
Readout Kind: fraction ligated
Keep it simple and answer with nothing but the number.

variant_code="T45C G55T" readout_kind="fraction ligated" recorded_measurement=0.134
variant_code="A41T A48G" readout_kind="fraction ligated" recorded_measurement=0.762
variant_code="A37G A56C" readout_kind="fraction ligated" recorded_measurement=0.802
variant_code="G34T A57G" readout_kind="fraction ligated" recorded_measurement=0.84
variant_code="A36G A39G" readout_kind="fraction ligated" recorded_measurement=0.862

Query: Quickly give me recorded fraction ligated for T23C T35G
Response: 0.83

Query: Give a short answer stating reported fraction ligated for A37C A41G .
Response: 0.79

Query: Using known records, supply fraction ligated for T43G G55A
Response: 0.801

src = the supplement of paper PMC6755084
